Tested on: Candida albicans
Test: Agar well inhibition zone test against fungi, Candida albicans (Table II)
Settings: quantity per well giving inhibition zone (500, 50, 5 μg tested); Sabouraud agar, 28°, 48 hours
# Lookup of reported Inhibition Area at μg, Cand. albicans keyed by entry
Property Label: Inhibition Area at μg, Cand. albicans (µg)

CC1CCCN(CCN2CCN(C(C)C(=Cc3ccccc3)Cc3ccccc3)CC2)C1 (stereo not drawn) [XXXIV] ... 50
OC(CCN1CCN(CCN2CCCCC2)CC1)(Cc1ccccc1)Cc1ccccc1 [LX] ... 500
Cc1cccc(CC(O)(Cc2cccc(C)c2)C(C)N2CCN(CCN3CCCCC3)CC2)c1 (stereo not drawn) [XXI] ... 50
CN1CCN(CCCCCCN2CCN(CCC(=Cc3ccccc3)Cc3ccccc3)CC2)CC1 [LXV] ... 5
CC(C(=Cc1ccccc1)Cc1ccccc1)N1CC[N+]2(CCCCCC2)CC1 (stereo not drawn) [LXVII] ... 50
CC(N1CCN(CCCCCCN2CCCCC2)CC1)C(O)(Cc1ccccc1)Cc1ccccc1 (stereo not drawn) [XX] ... 50
CC(N1CCNCC1)C(O)(Cc1ccccc1)Cc1ccccc1 (stereo not drawn) [L, 1-phenyl-2-benzyl-3-piperazino-butanol-2] ... 50
CC(N1CCN(CCN(C)C)CC1)C(O)(Cc1ccccc1)Cc1ccccc1 (stereo not drawn) [Compound I] ... 50
